Exercise: for every item that follows, state its recorded IC50.
experiment: Inhibition of [35S]tert-butylbicyclo[ 2.2.2]phosphorothionate binding to GABAA receptor in Wistar rat brain membrane; format: cell membranes
One number for each entry, in nM.

C[C@H]([C@@H](O)[C@H](O)CC(F)(F)C(F)(F)C(F)(F)C(F)(F)C(F)(F)C(F)(F)F)[C@H]1CC[C@H]2[C@@H]3COC(=O)[C@H]4C[C@H](O)[C@H](O)C[C@]4(C)[C@H]3CC[C@]12C    900

Look at each compound and report its IC50.
1. CC(=O)[C@H]1CC[C@H]2[C@@H]3CC[C@H]4C[C@H](O)CC[C@]4(C)[C@H]3CC[C@]12C
2. C[C@H]([C@@H](O)[C@H](O)CC(F)(C(F)(F)F)C(F)(F)F)[C@H]1CC[C@H]2[C@@H]3COC(=O)[C@H]4C[C@H](O)[C@H](O)C[C@]4(C)[C@H]3CC[C@]12C

output:
1: 80; 2: 100
